molecular target: T1, PTPRG on U266 cells (human, UniProt P23470); experiment: flow cytometry, IgG1 on U266 cells
T1 construct: endogenous on U266 multiple myeloma cells; also called HW-1 target on U266
T1 sequence (P23470 20-1445 limits assumed): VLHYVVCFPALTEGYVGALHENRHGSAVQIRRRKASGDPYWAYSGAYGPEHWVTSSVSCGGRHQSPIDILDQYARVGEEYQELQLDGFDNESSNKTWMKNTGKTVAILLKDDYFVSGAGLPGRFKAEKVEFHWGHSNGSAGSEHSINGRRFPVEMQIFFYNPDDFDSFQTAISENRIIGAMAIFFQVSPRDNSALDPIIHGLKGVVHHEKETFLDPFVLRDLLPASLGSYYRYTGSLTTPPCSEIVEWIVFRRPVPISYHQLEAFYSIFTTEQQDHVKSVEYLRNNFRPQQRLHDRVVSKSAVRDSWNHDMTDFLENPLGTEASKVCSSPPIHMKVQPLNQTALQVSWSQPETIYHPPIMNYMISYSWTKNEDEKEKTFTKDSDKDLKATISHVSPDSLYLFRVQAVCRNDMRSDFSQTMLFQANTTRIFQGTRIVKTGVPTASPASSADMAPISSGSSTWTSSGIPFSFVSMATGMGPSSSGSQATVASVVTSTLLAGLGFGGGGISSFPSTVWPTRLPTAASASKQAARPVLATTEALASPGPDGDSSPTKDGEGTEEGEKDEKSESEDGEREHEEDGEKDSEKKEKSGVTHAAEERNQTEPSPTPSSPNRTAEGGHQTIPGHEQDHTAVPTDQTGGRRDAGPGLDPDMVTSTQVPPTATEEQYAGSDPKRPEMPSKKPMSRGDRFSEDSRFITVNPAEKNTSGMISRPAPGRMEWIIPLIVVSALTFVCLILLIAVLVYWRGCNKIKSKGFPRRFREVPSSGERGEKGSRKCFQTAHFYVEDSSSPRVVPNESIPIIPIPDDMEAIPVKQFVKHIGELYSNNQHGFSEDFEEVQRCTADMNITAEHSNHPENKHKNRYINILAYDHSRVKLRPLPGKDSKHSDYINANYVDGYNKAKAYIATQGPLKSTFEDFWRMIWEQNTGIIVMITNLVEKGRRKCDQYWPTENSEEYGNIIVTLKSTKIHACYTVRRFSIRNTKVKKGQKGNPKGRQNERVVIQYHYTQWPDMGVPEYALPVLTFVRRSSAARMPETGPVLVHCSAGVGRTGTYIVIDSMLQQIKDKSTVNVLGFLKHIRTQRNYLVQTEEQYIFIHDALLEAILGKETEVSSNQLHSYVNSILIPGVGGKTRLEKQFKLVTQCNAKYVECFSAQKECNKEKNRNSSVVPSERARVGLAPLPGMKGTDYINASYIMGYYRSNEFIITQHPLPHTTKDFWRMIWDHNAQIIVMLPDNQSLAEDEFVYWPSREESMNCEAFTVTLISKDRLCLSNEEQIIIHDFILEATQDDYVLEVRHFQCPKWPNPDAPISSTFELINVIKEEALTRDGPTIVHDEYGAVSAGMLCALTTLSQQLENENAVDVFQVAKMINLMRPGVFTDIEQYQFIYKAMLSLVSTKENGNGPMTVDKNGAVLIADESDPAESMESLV
PROPERTY LABEL: antibody-bound positive cells (%)
One number for each entry, in %.

HW-17 chimeric rabbit-human IgG1 LA/LA/PG (antibody, V domains shown, Fc-silenced (L234A/L235A/P329G) IgG1, lambda; Alexa Fluor 647-labeled in single-step flow cytometry; Cluster C-1) VH: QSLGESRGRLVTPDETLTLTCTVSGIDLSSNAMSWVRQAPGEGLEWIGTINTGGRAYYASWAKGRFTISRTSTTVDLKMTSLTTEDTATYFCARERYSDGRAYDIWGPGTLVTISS VL: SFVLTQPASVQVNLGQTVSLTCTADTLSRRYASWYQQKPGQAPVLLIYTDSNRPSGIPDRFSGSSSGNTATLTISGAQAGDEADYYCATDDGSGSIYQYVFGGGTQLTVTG = 85.2
HW-25 chimeric rabbit-human IgG1 LA/LA/PG (antibody, V domains shown, Fc-silenced (L234A/L235A/P329G) IgG1, lambda; Alexa Fluor 647-labeled in single-step flow cytometry; Cluster C-1) VH: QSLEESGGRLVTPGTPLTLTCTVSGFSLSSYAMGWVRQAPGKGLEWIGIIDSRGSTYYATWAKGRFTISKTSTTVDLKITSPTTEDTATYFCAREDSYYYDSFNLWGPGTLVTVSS VL: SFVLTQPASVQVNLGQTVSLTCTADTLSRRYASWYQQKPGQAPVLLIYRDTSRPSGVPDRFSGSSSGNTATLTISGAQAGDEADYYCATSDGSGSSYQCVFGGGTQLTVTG = 69.6

// below: antibody-bound positive cells (%) requested for another binder
Recorded antibody-bound positive cells (%) for HW-70 chimeric rabbit-human IgG1 LA/LA/PG (antibody, V domains shown, Fc-silenced (L234A/L235A/P329G) IgG1, lambda; Alexa Fluor 647-labeled in single-step flow cytometry; Cluster C-1) VH: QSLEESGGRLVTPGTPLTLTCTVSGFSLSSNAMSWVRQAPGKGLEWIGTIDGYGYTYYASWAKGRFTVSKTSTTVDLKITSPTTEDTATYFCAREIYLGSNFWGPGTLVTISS VL: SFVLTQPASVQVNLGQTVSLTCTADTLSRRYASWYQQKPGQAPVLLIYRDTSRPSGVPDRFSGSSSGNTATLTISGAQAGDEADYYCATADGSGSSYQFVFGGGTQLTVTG , please? 76
